Target: T1, αvβ6 integrin on DX3puroβ6 (αvβ6+) cells (human), P06756
T1 chain 1: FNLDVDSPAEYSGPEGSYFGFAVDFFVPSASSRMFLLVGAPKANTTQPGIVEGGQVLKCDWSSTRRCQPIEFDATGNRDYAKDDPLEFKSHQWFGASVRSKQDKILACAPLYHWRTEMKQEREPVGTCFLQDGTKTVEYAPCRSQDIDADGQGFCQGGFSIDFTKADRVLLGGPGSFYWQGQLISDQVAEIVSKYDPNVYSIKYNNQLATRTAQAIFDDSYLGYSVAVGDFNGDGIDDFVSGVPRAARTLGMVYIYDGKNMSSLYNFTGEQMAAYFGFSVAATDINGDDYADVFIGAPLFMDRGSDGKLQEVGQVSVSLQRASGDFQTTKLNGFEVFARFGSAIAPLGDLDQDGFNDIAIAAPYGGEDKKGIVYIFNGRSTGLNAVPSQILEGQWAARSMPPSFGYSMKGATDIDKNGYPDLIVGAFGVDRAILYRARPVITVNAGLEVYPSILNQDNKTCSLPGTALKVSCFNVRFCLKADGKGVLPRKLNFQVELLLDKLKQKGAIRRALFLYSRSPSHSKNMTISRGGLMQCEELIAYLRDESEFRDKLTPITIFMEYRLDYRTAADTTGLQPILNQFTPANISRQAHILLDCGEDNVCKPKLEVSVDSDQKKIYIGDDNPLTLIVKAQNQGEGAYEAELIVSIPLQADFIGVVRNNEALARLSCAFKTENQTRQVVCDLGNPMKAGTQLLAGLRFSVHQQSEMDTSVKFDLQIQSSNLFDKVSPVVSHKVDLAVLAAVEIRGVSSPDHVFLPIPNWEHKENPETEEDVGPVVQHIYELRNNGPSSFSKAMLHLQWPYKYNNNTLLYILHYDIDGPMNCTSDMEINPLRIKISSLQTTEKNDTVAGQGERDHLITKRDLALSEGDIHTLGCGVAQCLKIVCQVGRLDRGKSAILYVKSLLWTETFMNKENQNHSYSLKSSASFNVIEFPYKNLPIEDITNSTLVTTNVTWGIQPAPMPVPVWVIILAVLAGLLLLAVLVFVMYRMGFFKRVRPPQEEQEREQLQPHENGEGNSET
T1 chain 2: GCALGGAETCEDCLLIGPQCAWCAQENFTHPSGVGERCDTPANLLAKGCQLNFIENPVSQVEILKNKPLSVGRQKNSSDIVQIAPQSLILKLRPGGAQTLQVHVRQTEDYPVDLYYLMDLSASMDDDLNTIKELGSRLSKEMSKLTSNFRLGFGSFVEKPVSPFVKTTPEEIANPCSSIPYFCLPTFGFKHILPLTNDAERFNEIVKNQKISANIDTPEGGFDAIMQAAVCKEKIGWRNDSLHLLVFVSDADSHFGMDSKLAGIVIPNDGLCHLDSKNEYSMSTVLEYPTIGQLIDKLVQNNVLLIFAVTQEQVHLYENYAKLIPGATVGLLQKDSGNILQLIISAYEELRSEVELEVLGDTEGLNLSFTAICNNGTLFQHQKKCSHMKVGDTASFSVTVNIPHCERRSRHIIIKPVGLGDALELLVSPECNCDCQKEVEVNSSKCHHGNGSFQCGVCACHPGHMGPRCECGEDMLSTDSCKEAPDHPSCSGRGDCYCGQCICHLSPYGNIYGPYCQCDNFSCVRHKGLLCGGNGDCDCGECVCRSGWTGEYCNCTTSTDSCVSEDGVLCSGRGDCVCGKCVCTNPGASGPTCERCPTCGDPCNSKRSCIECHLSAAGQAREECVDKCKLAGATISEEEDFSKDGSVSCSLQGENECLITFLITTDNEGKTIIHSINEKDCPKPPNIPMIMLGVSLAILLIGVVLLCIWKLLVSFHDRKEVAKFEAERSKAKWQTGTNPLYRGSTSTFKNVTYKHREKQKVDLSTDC
Test: 18F peptide cell binding, αvβ6+ over αvβ6- cells
Threshold 2. DX3puroβ6 (αvβ6+)/DX3puro (αvβ6-) selectivity ratio below it: Criterion met. DX3puroβ6 (αvβ6+)/DX3puro (αvβ6-) selectivity ratio at it or above: Criterion not met.

# Binder, Class label
records = [
    ("GRGDLGRL (modifications not checked) [SFLAP3-8mer, FB-GRGDLGRL]", "Criterion met"),
    ("RGDLQVLA (modifications not checked) [A20-8mer, FB-RGDLQVLA]", "Criterion not met"),
    ("RTDLDSLRT (modifications not checked) [RTD-9mer, FB-…]", "Criterion met"),
    ("RSDLTPLF (modifications not checked) [KL3, FB-RSDLTPLF]", "Criterion met"),
    ("RGDLQVLAQKVART (modifications not checked) [A20-14mer, FB-…]", "Criterion not met"),
    ("RGDLADLRK (modifications not checked) [P3, …(FB)]", "Criterion met"),
    ("VGDLTYLKK (modifications not checked) [P1, …(FB)]", "Criterion met"),
]
